Reference for the values: patent US9150482B2

Target: GLP-1 receptor (Homo sapiens, UniProt P43220)
Construct: expressed in transfected cells; host or cells: U2OS (human bone osteosarcoma)
Sequence (P43220 24-463, species assumed): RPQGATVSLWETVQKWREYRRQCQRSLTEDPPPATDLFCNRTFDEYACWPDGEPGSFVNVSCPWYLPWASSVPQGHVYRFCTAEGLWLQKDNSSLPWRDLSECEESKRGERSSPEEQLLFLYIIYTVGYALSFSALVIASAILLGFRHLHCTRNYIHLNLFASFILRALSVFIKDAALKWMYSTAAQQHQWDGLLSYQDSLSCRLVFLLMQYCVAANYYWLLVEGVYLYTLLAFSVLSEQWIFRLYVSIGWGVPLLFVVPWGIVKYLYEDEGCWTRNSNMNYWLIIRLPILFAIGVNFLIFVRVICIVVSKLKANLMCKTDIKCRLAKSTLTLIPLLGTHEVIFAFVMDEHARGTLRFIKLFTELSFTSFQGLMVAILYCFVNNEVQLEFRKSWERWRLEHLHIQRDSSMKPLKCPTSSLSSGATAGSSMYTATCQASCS
Test: Receptor arrestin translocation assay (GLP-1 potentiator activity, U2OS cells transfected with GLP-1 receptor gene)
Type: cell-based
Settings: read-out: EC50 (converted)
observed_property: EC50 (µM)

1) C=C1CCC2C(C)(C)CCC[C@]2(C)C1C1C=C(C=O)CC(O)O1 (stereo partly shown) : 13.9
2) C=C1CCC2C(C)(C)CCC[C@]2(C)[C@H]1C/C=C(/C=O)CCO (stereo partly shown) [Compound 5, (E)-labda-8(17),12-diene-15-ol-16-al] : 8.14

I: C=C1CCC2C(C)(C)CCC[C@]2(C)[C@H]1C/C=C(/C=O)CC(OCC)OCC (stereo partly shown)
II: C=C1CCC2C(C)(C)CCCC2(C)C1C1C=C(C=O)CC(O)OO1 (stereo not shown)
# input Which is greater in EC50, the first item I or the second item II ? Reply with the label of the item you choose.
# output I
